Molecular target: EP3 receptor (Homo sapiens, UniProt P43115)
Sequence (P43115 whole entry): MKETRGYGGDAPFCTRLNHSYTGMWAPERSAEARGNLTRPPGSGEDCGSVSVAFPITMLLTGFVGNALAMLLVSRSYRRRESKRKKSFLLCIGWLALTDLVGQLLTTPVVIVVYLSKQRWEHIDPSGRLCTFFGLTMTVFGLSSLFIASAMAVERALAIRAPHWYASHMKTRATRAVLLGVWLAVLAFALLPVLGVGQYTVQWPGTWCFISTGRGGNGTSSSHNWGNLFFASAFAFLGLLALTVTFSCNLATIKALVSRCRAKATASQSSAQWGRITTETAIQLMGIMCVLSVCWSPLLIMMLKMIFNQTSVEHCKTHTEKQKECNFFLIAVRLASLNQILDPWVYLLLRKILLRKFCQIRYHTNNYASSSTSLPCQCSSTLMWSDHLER
Assay: Prostanoid receptor antagonism (FLIPR), EP3
Type: cell-based
Conditions: Table 1
endpoint-label: Kb (µM)

| molecule | Kb / µM |
| --- | --- |
| CCCCCCCCNC(=O)c1coc([C@@H]2CCCN2Cc2cc(OC)ccc2CCC(=O)NS(=O)(=O)C(F)(F)F)n1 [Example 12f] | 0.14 |
| O=C(CCc1ccc(F)cc1CN1CCC[C@H]1c1nc(C(=O)NCCCCC2CCCCC2)co1)NS(=O)(=O)C(F)(F)F [Example 12a] | 0.08 |
| CCCCCCCCNC(=O)c1coc([C@@H]2CCCN2Cc2cc(F)ccc2CCC(=O)NS(=O)(=O)C(F)(F)F)n1 [Example 12e] | 0.11 |

1: O=C(CCc1ccc(Cl)cc1CN1CCC[C@H]1c1nc(C(=O)NCCCCC2CCCCC2)co1)NS(=O)(=O)C(F)(F)F [Example 12b]
2: O=C(CCc1cc2c(cc1CN1CCC[C@H]1c1nc(C(=O)NCCCCC3CCCCC3)co1)OCO2)NS(=O)(=O)C(F)(F)F [Example 12d]
3: COc1ccc(CCC(=O)NS(=O)(=O)C(F)(F)F)c(CN2CCC[C@H]2c2nc(C(=O)NCCCCC3CCCCC3)co2)c1 [Example 12c]
Kindly order the items shown according to Kb, from the highest value down. Rank them, then answer with their labels in that order.
2, 1, 3
(2: 0.15 µM, 1: 0.1 µM, 3: 0.047 µM)

----------
Biological target: FP receptor (Homo sapiens)
Sequence (P43088 whole entry): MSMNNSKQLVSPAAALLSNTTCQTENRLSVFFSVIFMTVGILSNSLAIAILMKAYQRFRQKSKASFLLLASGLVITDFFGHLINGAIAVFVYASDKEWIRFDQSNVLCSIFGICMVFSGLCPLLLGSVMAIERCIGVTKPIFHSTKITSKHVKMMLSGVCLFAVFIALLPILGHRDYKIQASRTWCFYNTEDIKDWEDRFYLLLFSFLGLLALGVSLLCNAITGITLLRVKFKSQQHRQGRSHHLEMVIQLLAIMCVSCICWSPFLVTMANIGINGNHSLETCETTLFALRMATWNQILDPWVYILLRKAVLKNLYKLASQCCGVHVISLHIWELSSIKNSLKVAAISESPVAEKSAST
Assay: Prostanoid receptor antagonism (FLIPR), FP
Assay type: cell-based
Conditions: Table 2
endpoint-label: Kb (nM)

These solved cases illustrate the format of a correct answer.
| molecule | tested-on | val |
| --- | --- | --- |
| COc1ccc(CCC(=O)NS(=O)(=O)CCCF)c(CN2CCC[C@H]2c2nc(C(=O)NCCCCC3CCCCC3)co2)c1 [Example 12h] | FP receptor (Homo sapiens) | 2000 |
| COc1ccc(CCC(=O)NS(=O)(=O)N(C)C)c(CN2CCC[C@H]2c2nc(C(=O)NCCCCC3CCCCC3)co2)c1 [Example 12k] | FP receptor (Homo sapiens) | 1400 |
| COc1ccc(CCC(=O)NS(=O)(=O)C(C)C)c(CN2CCC[C@H]2c2nc(C(=O)NCCCCC3CCCCC3)co2)c1 [Example 12i] | FP receptor (Homo sapiens) | 1500 |

P: CCS(=O)(=O)NC(=O)CCc1ccc(OC)cc1CN1CCC[C@H]1c1nc(C(=O)NCCCCC2CCCCC2)co1 [Example 12l]
Q: COc1ccc(CCC(=O)NS(=O)(=O)c2ccc(Cl)s2)c(CN2CCC[C@H]2c2nc(C(=O)NCCCCC3CCCCC3)co2)c1 [Example 12j]
Among P and Q , whose measured Kb is the smaller figure? Respond with the label that goes with your answer.
P

----------
Molecular target: EP2 receptor (Homo sapiens, UniProt P43116)
Sequence (P43116 whole entry): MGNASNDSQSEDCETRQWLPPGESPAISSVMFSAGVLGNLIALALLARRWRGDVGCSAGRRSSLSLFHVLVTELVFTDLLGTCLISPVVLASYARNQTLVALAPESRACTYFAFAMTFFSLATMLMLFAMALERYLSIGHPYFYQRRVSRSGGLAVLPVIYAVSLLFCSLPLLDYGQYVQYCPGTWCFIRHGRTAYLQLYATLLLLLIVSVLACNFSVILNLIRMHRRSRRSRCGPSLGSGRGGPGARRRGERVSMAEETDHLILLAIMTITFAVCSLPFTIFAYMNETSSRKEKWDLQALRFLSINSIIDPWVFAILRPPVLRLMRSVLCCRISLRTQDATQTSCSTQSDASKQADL
Assay: Prostanoid receptor antagonism (FLIPR), EP2
Format: cell-based
Settings: Table 1
endpoint-label: Kb (µM)

| compound | reading-unit | Kb |
| --- | --- | --- |
| CCCCCCCCNC(=O)c1coc([C@@H]2CCCN2Cc2cc(OC)ccc2CCC(=O)NS(=O)(=O)C(F)(F)F)n1 [Example 12f] | µM | 1.1 |
| O=C(CCc1ccc(Cl)cc1CN1CCC[C@H]1c1nc(C(=O)NCCCCC2CCCCC2)co1)NS(=O)(=O)C(F)(F)F [Example 12b] | µM | 5.5 |
| CCCCCCCCNC(=O)c1coc([C@@H]2CCCN2Cc2cc(F)ccc2CCC(=O)NS(=O)(=O)C(F)(F)F)n1 [Example 12e] | µM | 2.5 |

a: O=C(CCc1cc2c(cc1CN1CCC[C@H]1c1nc(C(=O)NCCCCC3CCCCC3)co1)OCO2)NS(=O)(=O)C(F)(F)F [Example 12d]
b: O=C(CCc1ccc(F)cc1CN1CCC[C@H]1c1nc(C(=O)NCCCCC2CCCCC2)co1)NS(=O)(=O)C(F)(F)F [Example 12a]
c: COc1ccc(CCC(=O)NS(=O)(=O)C(F)(F)F)c(CN2CCC[C@H]2c2nc(C(=O)NCCCCC3CCCCC3)co2)c1 [Example 12c]
Order field: Kb | Direction: descending (largest first) Your answer should be the labels, listed in the requested order.
b, a, c
(b: 6.4 µM, a: 3.9 µM, c: 0.83 µM)
